Recorded Mean uterine weight by entry
# Organism: Rattus norvegicus
# protocol: The compound was tested for anti-uterotrophic activity in immature rats(Dosage 1 ug)
# Type: functional

| compound | result-unit | Mean uterine weight |
| --- | --- | --- |
| CCN(CC)CCOc1ccc(C(=O)c2c(-c3ccc(O)cc3)sc3cc(O)ccc23)cc1 | mg | 56.2 |
| CC(C)N(CCOc1ccc(C(=O)c2c(-c3ccc(O)cc3)sc3cc(O)ccc23)cc1)C(C)C | mg | 60.1 |
| CC/C(=C(\c1ccccc1)c1ccc(OCCN(C)C)cc1)c1ccccc1 [TAMOXIFEN] | mg | 64.1 |
| O=C(c1ccc(OCCN2CCCC2)cc1)c1c(-c2ccc(O)cc2)sc2cc(O)ccc12 [LY-117018] | mg | 61.7 |
| O=C(c1ccc(OCCN2CCCCCC2)cc1)c1c(-c2ccc(O)cc2)sc2cc(O)ccc12 | mg | 56.3 |
| CN(C)CCOc1ccc(C(=O)c2c(-c3ccc(O)cc3)sc3cc(O)ccc23)cc1 | mg | 54.7 |
| O=C(c1ccc(OCCN2CCCCC2)cc1)c1c(-c2ccc(O)cc2)sc2cc(O)ccc12 [RALOXIFENE] | mg | 48.7 |

---

# Species: Rattus norvegicus
# protocol: The compound was tested for anti-uterotrophic activity in immature rats(Dosage 100 ug)
# Type: functional
The label is fulfilled for Mean uterine weight below 40 mg and not fulfilled for Mean uterine weight equal to or exceeding 40 mg.

| record-smiles | discrete-label |
| --- | --- |
| CC/C(=C(\c1ccccc1)c1ccc(OCCN(C)C)cc1)c1ccccc1 | not fulfilled |
| O=C(c1ccc(OCCN2CCCCC2)cc1)c1c(-c2ccc(O)cc2)sc2cc(O)ccc12 | fulfilled |
| O=C(c1ccc(OCCN2CCCC2)cc1)c1c(-c2ccc(O)cc2)sc2cc(O)ccc12 | not fulfilled |
| CN(C)CCOc1ccc(C(=O)c2c(-c3ccc(O)cc3)sc3cc(O)ccc23)cc1 | not fulfilled |
| CC(C)N(CCOc1ccc(C(=O)c2c(-c3ccc(O)cc3)sc3cc(O)ccc23)cc1)C(C)C | not fulfilled |
| CCN(CC)CCOc1ccc(C(=O)c2c(-c3ccc(O)cc3)sc3cc(O)ccc23)cc1 | not fulfilled |
